All figures here come from ChEMBL document CHEMBL3739379.

# Tested on: Candida tropicalis
# experiment: Antifungal activity against Candida tropicalis clinical isolate after 24 hrs by sabouraud dextrose broth based microdilution method
# Assay type: functional
measurement.kind: MIC (µg/mL)

compound="CC1CCC/C1=N\\N=C1/SCC(=O)N1Cc1ccc([N+](=O)[O-])cc1 (centres undefined)" val=2
compound=O=C1CS/C(=N\N=C\c2ccco2)N1Cc1ccc([N+](=O)[O-])cc1 val=2
compound=CCCC/C(CC)=N/N=C1\SCC(=O)N1CN1C(=O)c2ccccc2C1=O val=2
compound=CC(C)=N/N=C1\SCC(=O)N1Cc1ccc([N+](=O)[O-])cc1 val=2

----------
Examples of molecules with documented MIC follow.
# Test system: Candida tropicalis
# experiment: Antifungal activity against Candida tropicalis clinical isolate after 24 hrs by sabouraud dextrose broth based microdilution method
# Type: functional
measurement.kind: MIC (µg/mL)

molecule=OC(Cn1cncn1)(Cn1cncn1)c1ccc(F)cc1F system_tested="Candida tropicalis" value_unit=µg/mL val=2
molecule=O=C1CS/C(=N\N=C\c2ccc3c(c2)OCO3)N1Cc1cccc2ccccc12 system_tested="Candida tropicalis" value_unit=µg/mL val=16
molecule=CC/C(C)=N/N=C1\SCC(=O)N1Cc1ccc([N+](=O)[O-])cc1 system_tested="Candida tropicalis" value_unit=µg/mL val=128
molecule=C/C(=N\N=C1/SCC(=O)N1CN1C(=O)c2ccccc2C1=O)c1cccs1 system_tested="Candida tropicalis" value_unit=µg/mL val=2
molecule=C/C(=N\N=C1/SCC(=O)N1CN1C(=O)c2ccccc2C1=O)C1CCCCC1 system_tested="Candida tropicalis" value_unit=µg/mL val=256
molecule=O=C1CS/C(=N\N=C2CCCCCCC2)N1Cc1cccc2ccccc12 system_tested="Candida tropicalis" value_unit=µg/mL val=8
molecule="Clc1ccc(C(Cn2ccnc2)OCc2ccsc2Cl)c(Cl)c1 (stereo not drawn)" system_tested="Candida tropicalis" value_unit=µg/mL val=8
molecule=CCC(CC)=N/N=C1\SCC(=O)N1Cc1ccc([N+](=O)[O-])cc1 system_tested="Candida tropicalis" value_unit=µg/mL val=8
molecule="Clc1ccc(COC(Cn2ccnc2)c2ccc(Cl)cc2Cl)c(Cl)c1 (stereo not drawn)" system_tested="Candida tropicalis" value_unit=µg/mL val=2
molecule=O=C1CS/C(=N\N=C2CCCCCC2)N1Cc1cccc2ccccc12 system_tested="Candida tropicalis" value_unit=µg/mL val=8
molecule=O=C1CS/C(=N\N=C2CCCC2)N1Cc1ccc([N+](=O)[O-])cc1 system_tested="Candida tropicalis" value_unit=µg/mL val=1
molecule=O=C1c2ccccc2C(=O)N1CN1C(=O)CS/C1=N\N=C1CCCC1 system_tested="Candida tropicalis" value_unit=µg/mL val=8
molecule=CC/C(C)=N/N=C1\SCC(=O)N1CN1C(=O)c2ccccc2C1=O system_tested="Candida tropicalis" value_unit=µg/mL val=64
molecule=O=C1CS/C(=N\N=C2CCCCC2)N1Cc1cccc2ccccc12 system_tested="Candida tropicalis" value_unit=µg/mL val=8
molecule=CCCCCC/C(C)=N/N=C1\SCC(=O)N1Cc1cccc2ccccc12 system_tested="Candida tropicalis" value_unit=µg/mL val=8
molecule=C/C(=N\N=C1/SCC(=O)N1Cc1ccc([N+](=O)[O-])cc1)c1ccco1 system_tested="Candida tropicalis" value_unit=µg/mL val=16
molecule="CC1CCCC/C1=N\\N=C1/SCC(=O)N1Cc1cccc2ccccc12 (stereo not drawn)" system_tested="Candida tropicalis" value_unit=µg/mL val=4
molecule=C/C(CC(C)C)=N\N=C1/SCC(=O)N1Cc1ccc([N+](=O)[O-])cc1 system_tested="Candida tropicalis" value_unit=µg/mL val=32
